All figures here come from paper PMC12362582.

assay: In vivo pharmacokinetics in mice (oral bioavailability, clearance); settings: female, BomTac:NMRI-Foxn1nu, mouse, plasma; mice; AUC_DN oral (typically 30 mg/kg) / AUC_DN IV (5 mg/kg) * 100; read-out: F% (oral bioavailability in mice)
property name: bioavailability (%)

Cc1ncsc1-c1ccc([C@H](CCCCCN2CCC(c3ccc4c(c3)n(C3CCCC3)c3nc(=O)c5c(Br)cccc5n43)CC2)NC(=O)[C@@H]2C[C@@H](O)CN2C(=O)[C@@H](NC(=O)C2(F)CC2)C(C)(C)C)cc1 [A5-1] ... 4.3
Cc1ncsc1-c1ccc([C@H](CO[C@H](C)CN2CCC(c3ccc4c(c3)n(C3CCCC3)c3nc(=O)c5c(Br)cccc5n43)CC2)NC(=O)[C@@H]2C[C@@H](O)CN2C(=O)[C@@H](NC(=O)C2(F)CC2)C(C)(C)C)cc1 [B-2] ... 1.7
Cc1ncsc1-c1ccc([C@H](COC(C)(C)CN2CCC(c3ccc4c(c3)n(C3CCCC3)c3nc(=O)c5c(Br)cccc5n43)CC2)NC(=O)[C@@H]2C[C@@H](O)CN2C(=O)[C@@H](NC(=O)C2(F)CC2)C(C)(C)C)cc1 [B-4] ... 90.9
Cc1ncsc1-c1ccc([C@H](COCCN2CCC(c3ccc4c(c3)n(C3CCCC3)c3nc(=O)c5c(Br)cccc5n43)CC2)NC(=O)[C@@H]2C[C@@H](O)CN2C(=O)[C@@H](NC(=O)C2(F)CC2)C(C)(C)C)cc1 [B-1] ... 0.9
Cc1ncsc1-c1ccc([C@H](CC[C@H](C)CCN2CCC(c3ccc4c(c3)n(C3CCCC3)c3nc(=O)c5c(Br)cccc5n43)CC2)NC(=O)[C@@H]2C[C@@H](O)CN2C(=O)[C@@H](NC(=O)C2(F)CC2)C(C)(C)C)cc1 [A5-2] ... 22.1

a = Cc1ncsc1-c1ccc([C@H](CC[C@@H](C)CCN2CCC(c3ccc4c(c3)n(C3CCCC3)c3nc(=O)c5c(Br)cccc5n43)CC2)NC(=O)[C@@H]2C[C@@H](O)CN2C(=O)[C@@H](NC(=O)C2(F)CC2)C(C)(C)C)cc1 [A5-3]
b = Cc1ncsc1-c1ccc([C@H](CCCN2CCC(c3ccc4c(c3)n(C3CCCC3)c3nc(=O)c5c(Br)cccc5n43)CC2)NC(=O)[C@@H]2C[C@@H](O)CN2C(=O)[C@@H](NC(=O)C2(F)CC2)C(C)(C)C)cc1 [A3-1]
In: # min-compare on bioavailability between a and b Lab log: write the label of the selected item as the result.
Out: b

----------
assay: EPSA (supercritical fluid chromatography) and EPSA-to-TPSA ratio; format: physicochemical; details: supercritical fluid chromatographic (SFC) system; SFC-based polarity descriptor
property name: EPSA (A^2)

Cc1ncsc1-c1ccc([C@H](CCCN2CCC(c3ccc4c(c3)n(C3CCCC3)c3nc(=O)c5c(Br)cccc5n43)CC2)NC(=O)[C@@H]2C[C@@H](O)CN2C(=O)[C@@H](NC(=O)C2(F)CC2)C(C)(C)C)cc1 ... 133
Cc1ncsc1-c1ccc([C@H](CC[C@H](C)CCN2CCC(c3ccc4c(c3)n(C3CCCC3)c3nc(=O)c5c(Br)cccc5n43)CC2)NC(=O)[C@@H]2C[C@@H](O)CN2C(=O)[C@@H](NC(=O)C2(F)CC2)C(C)(C)C)cc1 ... 133

----------
assay: EPSA (supercritical fluid chromatography) and EPSA-to-TPSA ratio; assay type: physicochemical
property name: ETR (EPSA-to-TPSA ratio)

Cc1ncsc1-c1ccc([C@H](CC[C@@H](C)CCN2CCC(c3ccc4c(c3)n(C3CCCC3)c3nc(=O)c5c(Br)cccc5n43)CC2)NC(=O)[C@@H]2C[C@@H](O)CN2C(=O)[C@@H](NC(=O)C2(F)CC2)C(C)(C)C)cc1 [A5-3] ... 0.73
Cc1ncsc1-c1ccc([C@H](COC(C)(C)CN2CCC(c3ccc4c(c3)n(C3CCCC3)c3nc(=O)c5c(Br)cccc5n43)CC2)NC(=O)[C@@H]2C[C@@H](O)CN2C(=O)[C@@H](NC(=O)C2(F)CC2)C(C)(C)C)cc1 [B-4] ... 0.67
Cc1ncsc1-c1ccc([C@H](CO[C@H](C)CN2CCC(c3ccc4c(c3)n(C3CCCC3)c3nc(=O)c5c(Br)cccc5n43)CC2)NC(=O)[C@@H]2C[C@@H](O)CN2C(=O)[C@@H](NC(=O)C2(F)CC2)C(C)(C)C)cc1 [B-2] ... 0.68
Cc1ncsc1-c1ccc([C@@H](CC[C@@H](C)CCN2CCC(c3ccc4c(c3)n(C3CCCC3)c3nc(=O)c5c(Br)cccc5n43)CC2)NC(=O)[C@@H]2C[C@@H](O)CN2C(=O)[C@@H](NC(=O)C2(F)CC2)C(C)(C)C)cc1 [A5-4] ... 0.73
Cc1ncsc1-c1ccc([C@H](C[C@@H](C)CN2CCC(c3ccc4c(c3)n(C3CCCC3)c3nc(=O)c5c(Br)cccc5n43)CC2)NC(=O)[C@@H]2C[C@@H](O)CN2C(=O)[C@@H](NC(=O)C2(F)CC2)C(C)(C)C)cc1 [A3-3] ... 0.70
Cc1ncsc1-c1ccc([C@H](CC[C@H](C)CCN2CCC(c3ccc4c(c3)n(C3CCCC3)c3nc(=O)c5c(Br)cccc5n43)CC2)NC(=O)[C@@H]2C[C@@H](O)CN2C(=O)[C@@H](NC(=O)C2(F)CC2)C(C)(C)C)cc1 [A5-2] ... 0.73
Cc1ncsc1-c1ccc([C@H](CO[C@@H](C)CN2CCC(c3ccc4c(c3)n(C3CCCC3)c3nc(=O)c5c(Br)cccc5n43)CC2)NC(=O)[C@@H]2C[C@@H](O)CN2C(=O)[C@@H](NC(=O)C2(F)CC2)C(C)(C)C)cc1 [B-3] ... 0.68
Cc1ncsc1-c1ccc([C@H](CCCCCN2CCC(c3ccc4c(c3)n(C3CCCC3)c3nc(=O)c5c(Br)cccc5n43)CC2)NC(=O)[C@@H]2C[C@@H](O)CN2C(=O)[C@@H](NC(=O)C2(F)CC2)C(C)(C)C)cc1 [A5-1] ... 0.75
Cc1ncsc1-c1ccc([C@H](C[C@H](C)CN2CCC(c3ccc4c(c3)n(C3CCCC3)c3nc(=O)c5c(Br)cccc5n43)CC2)NC(=O)[C@@H]2C[C@@H](O)CN2C(=O)[C@@H](NC(=O)C2(F)CC2)C(C)(C)C)cc1 [A3-2] ... 0.68
Cc1ncsc1-c1ccc([C@H](COCCN2CCC(c3ccc4c(c3)n(C3CCCC3)c3nc(=O)c5c(Br)cccc5n43)CC2)NC(=O)[C@@H]2C[C@@H](O)CN2C(=O)[C@@H](NC(=O)C2(F)CC2)C(C)(C)C)cc1 [B-1] ... 0.69

----------
assay: log kW IAM (IAM.PC.DD2 column) and derived Δlog kW IAM polarity; type: physicochemical; conditions: IAM.PC.DD2 column, extrapolated, pH 7
property name: log kW^IAM

Cc1ncsc1-c1ccc([C@H](C[C@H](C)CN2CCC(c3ccc4c(c3)n(C3CCCC3)c3nc(=O)c5c(Br)cccc5n43)CC2)NC(=O)[C@@H]2C[C@@H](O)CN2C(=O)[C@@H](NC(=O)C2(F)CC2)C(C)(C)C)cc1 ... 2.21
Cc1ncsc1-c1ccc([C@H](C[C@@H](C)CN2CCC(c3ccc4c(c3)n(C3CCCC3)c3nc(=O)c5c(Br)cccc5n43)CC2)NC(=O)[C@@H]2C[C@@H](O)CN2C(=O)[C@@H](NC(=O)C2(F)CC2)C(C)(C)C)cc1 ... 2.29
Cc1ncsc1-c1ccc([C@H](CO[C@H](C)CN2CCC(c3ccc4c(c3)n(C3CCCC3)c3nc(=O)c5c(Br)cccc5n43)CC2)NC(=O)[C@@H]2C[C@@H](O)CN2C(=O)[C@@H](NC(=O)C2(F)CC2)C(C)(C)C)cc1 ... 1.92

----------
test: EPSA (supercritical fluid chromatography) and EPSA-to-TPSA ratio; format: physicochemical; conditions: supercritical fluid chromatographic (SFC) system; SFC-based polarity descriptor
property name: EPSA (A^2)

Cc1ncsc1-c1ccc([C@@H](CC[C@@H](C)CCN2CCC(c3ccc4c(c3)n(C3CCCC3)c3nc(=O)c5c(Br)cccc5n43)CC2)NC(=O)[C@@H]2C[C@@H](O)CN2C(=O)[C@@H](NC(=O)C2(F)CC2)C(C)(C)C)cc1 ... 134
Cc1ncsc1-c1ccc([C@H](COCCN2CCC(c3ccc4c(c3)n(C3CCCC3)c3nc(=O)c5c(Br)cccc5n43)CC2)NC(=O)[C@@H]2C[C@@H](O)CN2C(=O)[C@@H](NC(=O)C2(F)CC2)C(C)(C)C)cc1 ... 128
Cc1ncsc1-c1ccc([C@H](CC[C@@H](C)CCN2CCC(c3ccc4c(c3)n(C3CCCC3)c3nc(=O)c5c(Br)cccc5n43)CC2)NC(=O)[C@@H]2C[C@@H](O)CN2C(=O)[C@@H](NC(=O)C2(F)CC2)C(C)(C)C)cc1 ... 133
Cc1ncsc1-c1ccc([C@H](CO[C@@H](C)CN2CCC(c3ccc4c(c3)n(C3CCCC3)c3nc(=O)c5c(Br)cccc5n43)CC2)NC(=O)[C@@H]2C[C@@H](O)CN2C(=O)[C@@H](NC(=O)C2(F)CC2)C(C)(C)C)cc1 ... 124
Cc1ncsc1-c1ccc([C@H](C[C@H](C)CN2CCC(c3ccc4c(c3)n(C3CCCC3)c3nc(=O)c5c(Br)cccc5n43)CC2)NC(=O)[C@@H]2C[C@@H](O)CN2C(=O)[C@@H](NC(=O)C2(F)CC2)C(C)(C)C)cc1 ... 130
Cc1ncsc1-c1ccc([C@H](C[C@@H](C)CN2CCC(c3ccc4c(c3)n(C3CCCC3)c3nc(=O)c5c(Br)cccc5n43)CC2)NC(=O)[C@@H]2C[C@@H](O)CN2C(=O)[C@@H](NC(=O)C2(F)CC2)C(C)(C)C)cc1 ... 130
